The values you see were collected from ChEMBL document CHEMBL1153027.

Parameter: Activity. Scope: all listed entries.
- assayed-target: Cannabinoid receptor 1 (Rattus norvegicus)
- procedure-summary: Agonist activity at rat cerebellar membrane CB1 receptor at 10 uM by [35]GTPgammaS binding assay relative to basal level
- Type: functional
Numeric only. Scale: %

Field: example entries. Status: answers known.
{"structure-string": "O=C(c1ccccc1)c1nccc2ccccc12", "quantity-unit": "%", "Activity": 102}
{"structure-string": "O=C(c1cccc(F)c1)c1nccc2ccccc12", "quantity-unit": "%", "Activity": 99}
{"structure-string": "O=C(c1ccc(C(F)(F)F)cc1)c1nccc2ccccc12", "quantity-unit": "%", "Activity": 95}
{"structure-string": "O=C(c1ccc(Cl)c(Cl)c1)c1nccc2ccccc12", "quantity-unit": "%", "Activity": 111}
{"structure-string": "CN(C)c1ccccc1C(=O)c1nccc2ccccc12", "quantity-unit": "%", "Activity": 116}
{"structure-string": "O=C(c1ccccc1)c1ccc2ccccc2n1", "quantity-unit": "%", "Activity": 103}

So for `CC(C)Oc1ccc(C(=O)c2ccc3ccccc3n2)cc1` , the logged Activity turned out to be 102

For record `COc1ccccc1C(=O)c1ccc2ccccc2n1` the listed Activity is 106

Record summary for `O=C(c1ccc(C(F)(F)F)cc1)c1ccc2ccccc2n1` : reported Activity = 105

// Activity lookup, compound = `O=C(c1cccc(C(F)(F)F)c1)c1ccc2ccccc2n1` , result: 102

----------
- assayed-target: Cannabinoid receptor 1 (Rattus norvegicus) (UniProt P20272)
- Sequence (P20272 whole entry): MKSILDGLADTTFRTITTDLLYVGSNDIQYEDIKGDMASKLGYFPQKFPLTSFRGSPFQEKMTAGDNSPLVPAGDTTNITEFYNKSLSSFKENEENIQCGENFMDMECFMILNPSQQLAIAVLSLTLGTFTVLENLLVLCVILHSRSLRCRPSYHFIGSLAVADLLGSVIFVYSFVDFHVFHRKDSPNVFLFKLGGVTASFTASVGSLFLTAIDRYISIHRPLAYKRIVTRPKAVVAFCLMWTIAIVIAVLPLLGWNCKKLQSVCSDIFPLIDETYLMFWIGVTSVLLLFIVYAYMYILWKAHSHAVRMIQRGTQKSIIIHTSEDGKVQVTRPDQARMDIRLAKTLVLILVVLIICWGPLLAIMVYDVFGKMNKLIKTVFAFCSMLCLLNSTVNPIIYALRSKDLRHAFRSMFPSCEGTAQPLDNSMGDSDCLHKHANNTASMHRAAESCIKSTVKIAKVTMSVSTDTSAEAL
- procedure-summary: Agonist activity at rat cerebellar membrane CB1 receptor at 10 uM by [35]GTPgammaS binding assay relative to basal level
- Format: functional
assay-readout: Activity (%)
Use % as the unit, but write only the number.

Use the examples below as a reference point.
{"structure-string": "O=C(c1ccc(F)cc1)c1nccc2ccccc12", "assayed-target": "Cannabinoid receptor 1 (Rattus norvegicus) (UniProt P20272)", "Activity, %": 104}
{"structure-string": "O=C(c1cc(C(F)(F)F)cc(C(F)(F)F)c1)c1nccc2ccccc12", "assayed-target": "Cannabinoid receptor 1 (Rattus norvegicus) (UniProt P20272)", "Activity, %": 101}
{"structure-string": "O=C(c1ccccc1C(F)(F)F)c1nccc2ccccc12", "assayed-target": "Cannabinoid receptor 1 (Rattus norvegicus) (UniProt P20272)", "Activity, %": 112}

With those in mind, consider the next compound.
Input `O=C(c1ccc(Cl)cc1)c1nccc2ccccc12` . Output Activity: 101

----------
- assayed-target: Cannabinoid receptor 2 (Homo sapiens, UniProt P34972)
- Sequence (P34972 whole entry): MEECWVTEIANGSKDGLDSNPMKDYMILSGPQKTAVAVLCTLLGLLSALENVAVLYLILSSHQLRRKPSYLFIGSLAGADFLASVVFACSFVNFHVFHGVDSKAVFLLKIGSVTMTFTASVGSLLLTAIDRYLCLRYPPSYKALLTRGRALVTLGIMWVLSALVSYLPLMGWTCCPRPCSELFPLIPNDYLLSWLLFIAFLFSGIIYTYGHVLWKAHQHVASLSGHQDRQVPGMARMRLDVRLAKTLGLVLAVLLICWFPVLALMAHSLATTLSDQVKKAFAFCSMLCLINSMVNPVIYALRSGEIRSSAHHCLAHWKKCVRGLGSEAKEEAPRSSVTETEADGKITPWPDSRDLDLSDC
- procedure-summary: Agonist activity at human CB2 receptor expressed in CHO cells at 10 uM by [35]GTPgammaS binding assay relative to HU210
- Format: functional, cell-based
assay-readout: Emax (%)
The reply should be a number in %, with the unit left off.

{"structure-string": "O=C(c1ccc2ccccc2n1)c1ccccc1C(F)(F)F", "quantitative-readout": 87}
{"structure-string": "O=C(c1ccc(C(F)(F)F)cc1)c1nccc2ccccc12", "quantitative-readout": 57}
{"structure-string": "O=C(c1ccccc1)c1ccc2ccccc2n1", "quantitative-readout": 52}

The compound listed as `CN(C)c1ccc(C(=O)c2nccc3ccccc23)cc1` has a reported Emax of 68

The reported value for `CN(C)c1ccc(C(=O)c2ccc3ccccc3n2)cc1` in terms of Emax is 62

So for `O=C(c1cccc(C(F)(F)F)c1)c1ccc2ccccc2n1` , the logged Emax turned out to be 42
